Hey, just so you know, these numbers are from ChEMBL document CHEMBL3399948.

assayDetails: AUC (0 to 24 hrs) in Wistar rat at 10 mg/kg, po
Type: ADME, organism-based
Design: time < 24 hr, dose 10 mg/kg, route oral
assayContext: plasma
# key: entry, value: AUC(0-t) at 24 h
State the answer as a number, implicitly in ng·h/mL.

# testSmiles, AUC(0-t) at 24 h [ng·h/mL]
data = [
    ("COc1cc(OC)c(-c2cnc3[nH]c(-c4c(F)cccc4Cl)cc3c2)cn1", 11200),
]

Let's switch to this compound now.
Note AUC(0-t) at 24 h for the compound shown: `COc1cc(C)c(-c2cnc3[nH]c(-c4c(F)cccc4Cl)cc3c2)cn1`
2180

----------
assayDetails: Inhibition of Orai-mediated calcium entry in human Jurkat E6-1 cells after 1 hr by FLIPR assay
Format: cell-based
measureName: IC50 (nM)
Give just the number in nM; leave the unit off.

# testSmiles, unitsSymbol, observedMeasurement
rows = [
    ("COc1ccc(OC)c(-c2ccc(NC(=O)c3ccncc3F)cc2)c1", "nM", 82),
    ("Cn1nc(C(F)(F)F)cc1-c1cnc2[nH]c(-c3c(F)cccc3F)cc2c1", "nM", 140),
    ("Cn1nc(C(F)(F)F)cc1-c1cnc2[nH]c(-c3c(F)cccc3Cl)cc2c1", "nM", 66),
    ("COc1ncc(-c2cnc3[nH]c(-c4c(F)cccc4Cl)cc3c2)c(C)n1", "nM", 10000),
    ("Cn1nc(C(F)(F)F)cc1-c1cnc2[nH]c(Cc3ccccc3)cc2c1", "nM", 1400),
]

Let me know recorded IC50 for `Cc1cc(C(F)(F)F)ncc1-c1cnc2[nH]c(-c3c(F)cccc3Cl)cc2c1` , thanks.
129

For the molecule `Cc1cc(S(C)(=O)=O)ccc1-c1cnc2[nH]c(-c3c(F)cccc3Cl)cc2c1` , give its reported IC50.
280

Return the recorded IC50 value; entry: `Cn1nc(C(F)(F)F)cc1-c1cnc2[nH]c(-c3ccccc3Cl)cc2c1`
160

----------
assayDetails: Oral bioavailability in Wistar rat at 10 mg/kg
Assay type: ADME, organism-based
assayContext: in vivo
# bioavailability per record follows
Numeric answer only, unit % assumed.

# testSmiles, bioavailability [%]
data = [
    ("COc1cc(C)c(-c2cnc3[nH]c(-c4c(F)cccc4Cl)cc3c2)cn1", 37),
]

Now take the following molecule into account.
Look up bioavailability of `COc1cc(OC)c(-c2cnc3[nH]c(-c4c(F)cccc4Cl)cc3c2)cn1` and report it.
62

----------
assayDetails: Volume of distribution at steady state in Wistar rat at 1 mg/kg, iv
Assay type: ADME, organism-based
Parameters: dose 1 mg/kg, route intravenous
assayContext: in vivo, read-out: Vdss
measureName: Vd (L/kg)
Note: unit L/kg is implicit; provide only the numeric part.

# testSmiles, observedMeasurement
rows = [
    ("COc1cc(OC)c(-c2cnc3[nH]c(-c4c(F)cccc4Cl)cc3c2)cn1", 5),
]

Now look at this entry.
Please indicate Vd recorded for `COc1cc(C)c(-c2cnc3[nH]c(-c4c(F)cccc4Cl)cc3c2)cn1`
4.2

----------
assayDetails: Drug metabolism in rat liver microsomes at 5 uM after 30 mins in presence of NADPH
Type: ADME
assayContext: read-out: Drug metabolism
measureName: metabolised at 0.5 h, 5 µM (%)
// note: answer is a bare numeric in %

# testSmiles, unitsSymbol, metabolised at 0.5 h, 5 µM
records = [
    ("COc1cc(C)c(-c2cnc3[nH]c(-c4c(F)cccc4Cl)cc3c2)cn1", "%", 10),
]

Input `COc1cc(OC)c(-c2cnc3[nH]c(-c4c(F)cccc4Cl)cc3c2)cn1` , output reported metabolised at 0.5 h, 5 µM.
10

----------
Listed molecules paired with reported logD
assayDetails: Lipophilicity, log D of the compound at pH 7.4
Type: physicochemical
assayContext: buffer

# testSmiles, logD
rows = [
    ("COc1ccc(OC)c(-c2ccc(NC(=O)c3ccncc3F)cc2)c1", 3.5),
]

Next molecule, logD to be filled in.
State, in one line, measured logD of `Cc1nnsc1C(=O)Nc1ccc(-n2nc(C(F)(F)F)cc2C(F)(F)F)cc1`
4.4

----------
assayDetails: Solubility of the compound in water
Assay type: physicochemical
Listed here are compounds together with their documented solubility.

# testSmiles, measureName, observedMeasurement
measured = [
    ("Cc1nc2cc(-c3cnc4[nH]c(-c5c(F)cccc5Cl)cc4c3)c(Cl)cc2o1", "solubility", "< 1 µg/mL"),
    ("Cn1nc(C(F)(F)F)cc1-c1cnc2[nH]c(-c3c(F)cccc3Cl)cc2c1", "solubility", "< 5 µg/mL"),
    ("Fc1cccc(Cl)c1-c1cc2cc(-c3cc4c(cc3Cl)OC(F)(F)O4)cnc2[nH]1", "solubility", "< 1 µg/mL"),
    ("COc1cc(OC)c(-c2cnc3[nH]c(-c4c(F)cccc4Cl)cc3c2)cn1", "solubility", "< 5 µg/mL"),
]

Then this compound:
Please report solubility for the following compound: `COc1cc(C)c(-c2cnc3[nH]c(-c4c(F)cccc4Cl)cc3c2)cn1`
< 5 µg/mL

----------
This section presents compounds with their documented pIC50 values.
systemName: Calcium release-activated calcium channel protein 1 (Homo sapiens)
Sequence (Q96D31 whole entry): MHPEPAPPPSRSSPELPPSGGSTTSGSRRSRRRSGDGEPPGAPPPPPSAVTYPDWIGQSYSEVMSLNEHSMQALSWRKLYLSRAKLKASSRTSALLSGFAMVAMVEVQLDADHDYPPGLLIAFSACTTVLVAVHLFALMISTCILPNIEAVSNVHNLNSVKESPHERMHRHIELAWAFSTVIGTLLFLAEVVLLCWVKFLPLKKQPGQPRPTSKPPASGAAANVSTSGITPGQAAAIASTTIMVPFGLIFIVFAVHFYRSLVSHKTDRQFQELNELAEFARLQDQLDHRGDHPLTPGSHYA
assayDetails: Inhibition of human Orai1/STIM1 expressed in HEK293 cells assessed as inhibition of channel-mediated calcium current by electrophysiology assay in presence of 10 mM EGTA
# pIC50 = -log10(concentration in molar units)

# testSmiles, pIC50
records = [
    ("COc1cc(OC)c(-c2cnc3[nH]c(-c4c(F)cccc4Cl)cc3c2)cn1", 6.36),
]

Note: attention shifts to another entry.
Provide measured pIC50 value, entry: `COc1cc(C)c(-c2cnc3[nH]c(-c4c(F)cccc4Cl)cc3c2)cn1`
6.98
